biological target: HA of ca A/Wuhan/359/95 (H3N2) virus (influenza A virus); assay: cell-based or functional assay
Please provide measured Neutralization IC50, H3-WH95 for the entries that follow.
One number for each entry, in µg/mL.

Before answering, review these 2 worked examples.
binder="Antibody 5 (antibody, V domains shown) VH: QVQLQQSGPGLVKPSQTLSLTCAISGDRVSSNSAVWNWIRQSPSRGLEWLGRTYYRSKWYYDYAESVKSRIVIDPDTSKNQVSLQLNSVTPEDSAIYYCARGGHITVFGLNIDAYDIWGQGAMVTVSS VL: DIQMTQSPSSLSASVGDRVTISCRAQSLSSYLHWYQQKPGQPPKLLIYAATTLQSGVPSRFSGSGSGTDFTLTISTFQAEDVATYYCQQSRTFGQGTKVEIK" assayvalue=3.72
binder="Antibody 10 (antibody, V domains shown) VH: QVQLQQSGPGLVKPSQTLSLTCAISGDSVSSNSATWNWIRQSPSRGLEWLGRTYYRSKWYNDYADFLKRRITINPDTSNNEVSLRLTSVTPDDTALYYCARGGHITVFGVNIDAFDVWGQGTMVTVSS VL: DIQMTQSPSSLSASVGDRITISCRTSQSLRSYLHWYQQKPGKAPKLLIYASSTLQSGVPSRFSGSGSGTDFTLTISNLQPEDFATYYCQLSRTFGQGTKVEIK" assayvalue=8.7

Pending binder:
What value of measured Neutralization IC50, H3-WH95 is listed for Antibody 6 (antibody, V domains shown) VH: QVQLQQSGPGLVKPSQTLSLTCAISGDRVSSNSAVWNWIRQSPSRGLEWLGRTYYRSKWYYDYAESVKSRIVIDPDTSKNQVSLQLNSVTPEDSAIYYCARGGHITEFGLNIDAYDIWGQGAMVTVSS VL: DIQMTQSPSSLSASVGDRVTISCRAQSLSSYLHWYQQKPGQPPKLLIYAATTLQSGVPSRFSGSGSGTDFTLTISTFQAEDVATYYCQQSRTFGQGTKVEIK ? 10.5
